# measurement target: T1, human CCR8 (human, UniProt P51685 1-355)
# T1 construct: Native CCR8 on human PBMC (CCR8+ CD3+ or CCR8+ CD4+ lymphocytes); also called chemokine (C-C motif) receptor 8
# T1 sequence (P51685 whole entry): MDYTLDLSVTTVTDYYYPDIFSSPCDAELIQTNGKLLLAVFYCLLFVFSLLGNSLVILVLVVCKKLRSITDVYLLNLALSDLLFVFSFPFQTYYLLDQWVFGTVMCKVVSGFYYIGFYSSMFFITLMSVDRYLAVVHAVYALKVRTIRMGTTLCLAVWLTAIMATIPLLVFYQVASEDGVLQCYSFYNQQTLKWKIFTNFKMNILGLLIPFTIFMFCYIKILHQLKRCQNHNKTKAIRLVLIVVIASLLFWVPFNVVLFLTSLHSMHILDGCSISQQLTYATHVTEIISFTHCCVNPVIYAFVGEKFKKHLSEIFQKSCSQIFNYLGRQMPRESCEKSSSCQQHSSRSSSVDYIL
# test details: flow blocking, PBMC CCR8+CD3+; competitor PE-AB15
# Description: For blocking studies, 100 μL of the cell suspension were incubated with 10 μg purified isotype control, AB1, AB2, AB3, AB4, AB5, AB8, AB9, AB10, AB11, AB12, AB13, AB14, AB15, and Commercial ABI antibodies, or isotype control, as blocking agents. […]

[
  {
    "binder": "AB11 (antibody, V domains shown, Hybridoma monoclonal; also called antibody 11; clone 11) VH: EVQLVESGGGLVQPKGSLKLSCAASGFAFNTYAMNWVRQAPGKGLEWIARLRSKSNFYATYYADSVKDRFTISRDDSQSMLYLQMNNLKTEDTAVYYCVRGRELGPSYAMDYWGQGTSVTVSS VL: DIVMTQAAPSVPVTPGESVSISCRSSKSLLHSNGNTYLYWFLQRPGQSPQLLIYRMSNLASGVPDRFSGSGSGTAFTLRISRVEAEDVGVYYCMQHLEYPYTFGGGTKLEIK",
    "% Blocking": "52%"
  },
  {
    "binder": "AB8 (antibody, V domains shown, Hybridoma monoclonal; also called antibody 8; clone 8) VH: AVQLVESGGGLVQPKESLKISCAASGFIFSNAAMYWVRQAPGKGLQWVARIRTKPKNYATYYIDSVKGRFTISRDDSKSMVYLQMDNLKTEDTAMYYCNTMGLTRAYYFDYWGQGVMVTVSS VL: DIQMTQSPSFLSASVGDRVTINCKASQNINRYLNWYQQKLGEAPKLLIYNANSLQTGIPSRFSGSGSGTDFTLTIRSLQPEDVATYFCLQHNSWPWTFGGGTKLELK",
    "% Blocking": "45.2%"
  },
  {
    "binder": "AB7 (antibody, V domains shown, Hybridoma monoclonal; also called antibody 7; clone 7) VH: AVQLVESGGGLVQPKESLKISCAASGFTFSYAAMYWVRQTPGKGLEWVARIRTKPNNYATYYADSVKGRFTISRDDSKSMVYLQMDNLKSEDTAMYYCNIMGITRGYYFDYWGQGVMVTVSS VL: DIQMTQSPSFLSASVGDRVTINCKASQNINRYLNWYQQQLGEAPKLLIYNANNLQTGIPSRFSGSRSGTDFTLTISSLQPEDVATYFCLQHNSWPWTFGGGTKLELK",
    "% Blocking": "23.2%"
  },
  {
    "binder": "AB5 (antibody, V domains shown, Hybridoma monoclonal; Same VH/VL entries as AB6; also called antibody 5; clone 5) VH: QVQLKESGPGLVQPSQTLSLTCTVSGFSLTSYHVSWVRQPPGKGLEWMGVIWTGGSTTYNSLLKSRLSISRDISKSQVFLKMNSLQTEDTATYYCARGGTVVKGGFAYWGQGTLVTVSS VL: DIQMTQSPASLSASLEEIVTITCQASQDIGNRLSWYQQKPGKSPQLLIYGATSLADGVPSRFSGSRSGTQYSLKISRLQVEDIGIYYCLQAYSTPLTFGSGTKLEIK",
    "% Blocking": "-1.63%"
  }
]
